Conditions: in methanol, 293.15 K
assayEndpoint: solubility (mole fraction)

// solubility (mole fraction) lookup, compound = COC(=O)Nc1nc2ccccc2[nH]1 , result: 6.33e-05

* * *

Settings: in methanol, 318.15 K
assayEndpoint: solubility (mole fraction)
Answer using only a numeral; do not append any unit.

// solubility (mole fraction) lookup, molecule = COC(=O)Nc1nc2ccccc2[nH]1 , result: 0.000173

* * *

Conditions: in ethanol, 288.15 K
assayEndpoint: solubility (mole fraction)
Answer using only a numeral; do not append any unit.

// solubility (mole fraction) lookup, compound = COC(=O)Nc1nc2ccccc2[nH]1 , result: 1.58e-05

* * *

Conditions: in n-pentanol, 283.15 K
assayEndpoint: solubility (mole fraction)

// solubility (mole fraction) lookup, molecule = COC(=O)Nc1nc2ccccc2[nH]1 , result: 2e-06

* * *

Details: in n-pentanol, 288.15 K
assayEndpoint: solubility (mole fraction)

// solubility (mole fraction) lookup, molecule = COC(=O)Nc1nc2ccccc2[nH]1 , result: 3.62e-06

* * *

Conditions: in n-propanol, 318.15 K
assayEndpoint: solubility (mole fraction)

// solubility (mole fraction) lookup, molecule = COC(=O)Nc1nc2ccccc2[nH]1 , result: 8.38e-05

* * *

Conditions: in n-pentanol, 313.15 K
assayEndpoint: solubility (mole fraction)
Answer using only a numeral; do not append any unit.

// solubility (mole fraction) lookup, compound = COC(=O)Nc1nc2ccccc2[nH]1 , result: 4.55e-05

* * *

Settings: in n-butanol, 318.15 K
assayEndpoint: solubility (mole fraction)
Answer using only a numeral; do not append any unit.

// solubility (mole fraction) lookup, compound = COC(=O)Nc1nc2ccccc2[nH]1 , result: 7.61e-05

* * *

Conditions: in ethanol, 293.15 K
assayEndpoint: solubility (mole fraction)
Answer using only a numeral; do not append any unit.

// solubility (mole fraction) lookup, compound = COC(=O)Nc1nc2ccccc2[nH]1 , result: 2.3e-05

* * *

Conditions: in n-butanol, 298.15 K
assayEndpoint: solubility (mole fraction)

// solubility (mole fraction) lookup, compound = COC(=O)Nc1nc2ccccc2[nH]1 , result: 1.5e-05

* * *

Details: in n-pentanol, 278.15 K
assayEndpoint: solubility (mole fraction)
Answer using only a numeral; do not append any unit.

// solubility (mole fraction) lookup, compound = COC(=O)Nc1nc2ccccc2[nH]1 , result: 1e-06

* * *

Conditions: in ethanol, 318.15 K
assayEndpoint: solubility (mole fraction)
Answer using only a numeral; do not append any unit.

// solubility (mole fraction) lookup, compound = COC(=O)Nc1nc2ccccc2[nH]1 , result: 0.000101

* * *

Conditions: in methanol, 313.15 K
assayEndpoint: solubility (mole fraction)
Answer using only a numeral; do not append any unit.

// solubility (mole fraction) lookup, molecule = COC(=O)Nc1nc2ccccc2[nH]1 , result: 0.000143

* * *

Settings: in methanol, 283.15 K
assayEndpoint: solubility (mole fraction)
Answer using only a numeral; do not append any unit.

// solubility (mole fraction) lookup, compound = COC(=O)Nc1nc2ccccc2[nH]1 , result: 4e-05

* * *

Settings: in ethanol, 298.15 K
assayEndpoint: solubility (mole fraction)

// solubility (mole fraction) lookup, compound = COC(=O)Nc1nc2ccccc2[nH]1 , result: 3.19e-05

* * *

Conditions: in n-propanol, 303.15 K
assayEndpoint: solubility (mole fraction)
Answer using only a numeral; do not append any unit.

// solubility (mole fraction) lookup, molecule = COC(=O)Nc1nc2ccccc2[nH]1 , result: 2.73e-05
